Test system: Lewis lung carcinoma cell line
Experiment Notes: Inhibitory activity of tested against Murine Lewis lung carcinoma
Assay type: functional, cell-based
Settings: Mus musculus
Reported IC50 maps to class as: lower bin (below 30 nM), middle bin (30 nM to below 100 nM), upper bin (100 nM or more)

* CCc1ccc2nc3c(C(=O)NCCCN(C)CCCNC(=O)c4cccc5cc6cc(CC)ccc6nc45)cccc3cc2c1 | upper bin
* Cc1cccc2cc3c(Cl)ccc(C(=O)NCCCN(C)CCCNC(=O)c4ccc(Cl)c5cc6cccc(C)c6nc45)c3nc12 | lower bin

Request: Hi there! Could you help me figure out the category for `CN(CCCNC(=O)c1cccc2cc3cc(F)ccc3nc12)CCCNC(=O)c1cccc2cc3cc(F)ccc3nc12` please?
Result: middle bin

Request: Also need `CCc1cccc2cc3cccc(C(=O)NCCCN(C)CCCNC(=O)c4cccc5cc6cccc(CC)c6nc45)c3nc12` , thanks.
Result: lower bin

Request: # repeat for `CN(CCCNC(=O)c1cccc2cc3cccc(F)c3nc12)CCCNC(=O)c1cccc2cc3cccc(F)c3nc12`
Result: middle bin

Request: Would you mind doing `CC(C)c1cccc2cc3cccc(C(=O)NCCCN(C)CCCNC(=O)c4cccc5cc6cccc(C(C)C)c6nc45)c3nc12` as well?
Result: upper bin

Request: Would you mind doing `CN(CCCNC(=O)c1cccc2cc3ccc(Br)cc3nc12)CCCNC(=O)c1cccc2cc3ccc(Br)cc3nc12` as well?
Result: lower bin

Request: Would you mind doing `CN(CCCNC(=O)c1cccc2cc3c(Cl)cccc3nc12)CCCNC(=O)c1cccc2cc3c(Cl)cccc3nc12` as well?
Result: upper bin

Request: Next entry: `CC(C)c1ccc2nc3c(C(=O)NCCCN(C)CCCNC(=O)c4cccc5cc6cc(C(C)C)ccc6nc45)cccc3cc2c1`
Result: upper bin

Request: Do the same for `CN(CCCNC(=O)c1cccc2cc3cc(Cl)ccc3nc12)CCCNC(=O)c1cccc2cc3cc(Cl)ccc3nc12` please
Result: middle bin

Request: Cool, now `CN(CCCNC(=O)c1cccc2cc3cccc(C(F)(F)F)c3nc12)CCCNC(=O)c1cccc2cc3cccc(C(F)(F)F)c3nc12`
Result: middle bin

Request: Consider next the compound `CN(CCCNC(=O)c1cccc2cc3cccc(N(C)C)c3nc12)CCCNC(=O)c1cccc2cc3cccc(N(C)C)c3nc12` in the same way.
Result: upper bin

Request: Repeat with `Cc1ccc2cc3cccc(C(=O)NCCCN(C)CCCNC(=O)c4cccc5cc6ccc(C)cc6nc45)c3nc2c1`
Result: middle bin
